B1: FEM1A (parent)
chain: PCCSSSPEEPLNGESYESCCPTSR

# Variants of: B1
# PROTOCOL SUMMARY: protein stability index of a GFP-peptide fusion (GPS, HEK-293T) (PSI 1-6); higher = more stable;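 also: lentivirally expressed fusions sorted by FACS into six bins by GFP to DsRed ratio, PSI derived from sequencing read proportions per bin multiplied by bin number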
# TEST PARAMETERS: c terminus: a fixed tail appended
Reported protein stability index by item:

Examples from the recorded data:
# CHANGE, OBSERVED PROPERTY, ASSAY RESULT
measured = [
    ("C20R", "protein stability index", 4.08),
    ("C20V", "protein stability index", 3.47),
    ("Y16A", "protein stability index", 3.55),
    ("R24T", "protein stability index", 4.97),
    ("C2S", "protein stability index", 4.21),
]

The reported value for "C3T" in terms of protein stability index is 5.06

The reported value for "P10I" in terms of protein stability index is 3.6

The reported value for "E9A" in terms of protein stability index is 3.39

The reported value for "P1C" in terms of protein stability index is 1.83

The reported value for "L11K" in terms of protein stability index is 3.77

The reported value for "L11Q" in terms of protein stability index is 3.86

The reported value for "P21L" in terms of protein stability index is 3.51
